test-description: Mean cumulative urine excretion level in patient with moderate renal impairment at 400 mg, po administered as single dose
Type: ADME, organism-based
measurement-parameters: human, read-out: Activity
metric: dose excreted

Ask: Consider the molecule Cc1cn([C@@H]2C[C@@H](O)[C@H](CO)O2)c(=O)[nH]c1=O [TELBIVUDINE] and give its measured dose excreted.
Result: 19.8%

---

test-description: Plasma clearance in patient with end-stage renal disease at 200 mg, po administered as two single doses within 2 hrs of after completion of dialysis separated by 1 week washout period
Assay type: ADME, organism-based
measurement-parameters: human
metric: CL/F (mL/min)
Numbers only, in mL/min.

Ask: Consider the compound Cc1cn([C@@H]2C[C@@H](O)[C@H](CO)O2)c(=O)[nH]c1=O [TELBIVUDINE] and give its measured CL/F.
Result: 60
